# experimental-target: cAMP-dependent protein kinase (PKA) (Homo sapiens, UniProt P22694+P17612+P22612)
endpoint-label: log10(IC50) (log10 of the value in nM)

>  <line-notation>
CO[C@H]1[C@@H]([N+](C)(C)C)C[C@@H]2O[C@@]1(C)n1c3ccccc3c3c4c(c5c6ccccc6n2c5c31)C(=O)NC4

>  <log10(IC50)>
1.83

$$$$
>  <line-notation>
COC(=O)N(C)[C@H]1C[C@@H]2O[C@](C)([C@H]1OC)n1c3ccccc3c3c4c(c5c6ccccc6n2c5c31)C(=O)NC4

>  <log10(IC50)>
2.68

$$$$
>  <line-notation>
CC[N+](C)(C)[C@H]1C[C@@H]2O[C@](C)([C@H]1OC)n1c3ccccc3c3c4c(c5c6ccccc6n2c5c31)C(=O)NC4

>  <log10(IC50)>
2.43

$$$$
>  <line-notation>
COc1ccc(C(=O)N(C)[C@H]2C[C@@H]3O[C@](C)([C@H]2OC)n2c4ccccc4c4c5c(c6c7ccccc7n3c6c42)C(=O)NC5)cc1

>  <log10(IC50)>
3.18

$$$$
>  <line-notation>
CO[C@H]1[C@@H](N(C)CCC#N)C[C@@H]2O[C@@]1(C)n1c3ccccc3c3c4c(c5c6ccccc6n2c5c31)C(=O)NC4

>  <log10(IC50)>
3.15

$$$$
